Ref: patent US9452980B2

Known Ki of a selection of compounds
# Study System: mouse TAAR1 (Mus musculus (Mouse))
# Assay: Radioligand binding assay on mouse TAAR1
# Measurement Context: read-out: Ki (μM) mouse
Where a name gives a salt, the structure may show the parent alone.
Property Label: Ki (µM)

- Compound: "Cc1nc(-c2cnccn2)sc1C(=O)Nc1ccc(C2CNCCO2)cc1 (racemic) [Example 298, hydrochloride]"
  Property Label: "Ki"
  Value: 0.0506
- Compound: "Cc1ccc(C(=O)Nc2ccc(C3CCNC3)cc2)cc1 (racemic) [Example 182, hydrochloride]"
  Property Label: "Ki"
  Value: 0.0253
- Compound: "O=C(Nc1ccc([C@H]2CNCCO2)cc1)c1ccc(OCC(F)(F)F)nc1 [Example 269, hydrochloride]"
  Property Label: "Ki"
  Value: 0.0099
- Compound: "CSc1ccc(C(=O)Nc2ccc([C@@H]3CCCNC3)cc2)cn1 [Example 244, hydrochloride]"
  Property Label: "Ki"
  Value: 0.268

###

# Study System: mouse TAAR1 (Mus musculus (Mouse), UniProt Q923Y8)
# Sequence (Q923Y8 whole entry): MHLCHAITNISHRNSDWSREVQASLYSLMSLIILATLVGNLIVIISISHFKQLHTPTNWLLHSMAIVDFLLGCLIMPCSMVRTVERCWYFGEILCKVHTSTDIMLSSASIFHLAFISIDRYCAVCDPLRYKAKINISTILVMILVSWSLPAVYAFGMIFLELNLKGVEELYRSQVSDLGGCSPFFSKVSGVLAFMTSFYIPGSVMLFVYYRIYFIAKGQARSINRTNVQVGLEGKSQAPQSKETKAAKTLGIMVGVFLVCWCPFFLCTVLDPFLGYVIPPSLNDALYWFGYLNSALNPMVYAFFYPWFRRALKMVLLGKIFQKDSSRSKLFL
# Assay: Radioligand binding assay on mouse TAAR1
# Measurement Context: mouse TAAR1, HEK-293 membranes, first value of cell mouse/rat; read-out: Ki (μM) mouse
# Experimental: For the construction of expression plasmids the coding sequences of human, rat and mouse TAAR1 were amplified from genomic DNA essentially as described by Lindemann et al.. The Expand High Fidelity PCR System (Roche Diagnostics) was used with 1.5 mM Mg^2+ and purified PCR products were cloned into pCR2.1-TOPO cloning vector (Invitrogen) following the instructions of the manufacturer. […]
Structures can show the parent of a compound that is named as a salt.
Property Label: log10 of Ki (log10 of the value in µM)

- Compound: "COC(=O)c1ccc(Oc2ccc(C(=O)Nc3ccc(C4CNCCO4)cc3)cc2)cc1Cl (racemic) [Example 213, hydrochloride]"
  Value: -2.92
- Compound: "O=C(Nc1ccc(C2CNCCO2)cc1)c1coc(-c2ccccc2)n1 (racemic) [Example 249, hydrochloride]"
  Value: -2.60
- Compound: "O=C(Nc1ccc(C2CCNC2)cc1)c1ccc2ccccc2n1 (racemic) [Example 84, hydrochloride]"
  Value: -2.10
- Compound: "O=C(Nc1ccc(CC2CCCN2)cc1)c1ccc(Cl)cc1 (racemic) [Example 107, hydrochloride]"
  Value: -2.57
- Compound: "O=C(Nc1ccc(C2CNCCO2)cc1)c1ccc(Oc2ccc(C(=O)O)c(Cl)c2)cc1 (racemic) [Example 215, hydrochloride]"
  Value: 0.45
- Compound: "O=C(Nc1ccc(COC2CCNC2)cc1)c1ccc(Cl)cc1 (racemic) [Example 145, hydrochloride]"
  Value: -1.64
- Compound: "O=C(Nc1ccc(C2CCNC2)cc1)c1ccccc1 (racemic) [Example 13, hydrochloride]"
  Value: -2.10
- Compound: "CCCc1ccc(C(=O)Nc2ccc(C3CCNC3)cc2)cc1 (racemic) [Example 53, hydrochloride]"
  Value: -2.80
- Compound: "O=C(Nc1ccc(C2CCNC2)cc1)c1cnc(Cl)cn1 (racemic) [Example 163, hydrochloride]"
  Value: -1.24
- Compound: "O=C(Nc1ccc(CCC2CCCCN2)cc1)c1ccc(Cl)c(Cl)c1 (racemic) [Example 176, hydrochloride]"
  Value: -1.60
- Compound: "O=C(Nc1ccc(C2CCNC2)cc1)c1ncccc1F (racemic) [Example 82, hydrochloride]"
  Value: -0.15
- Compound: "O=C(Nc1ccc([C@@H]2CNC[C@H]2O)cc1)c1ccc(Cl)cc1 (racemic) [Example 63, hydrochloride]"
  Value: -1.08
- Compound: "O=C(Nc1ccc(C2CCNC2)cc1)c1cc2ccccc2c(Cl)n1 (racemic) [Example 108, hydrochloride]"
  Value: -2.34
- Compound: "O=C(Nc1ccc(C2CCNC2)cc1)c1ncc(F)cc1F (racemic) [Example 75, hydrochloride]"
  Value: -1.59
- Compound: "CSc1ccc(C(=O)Nc2ccc([C@@H]3CCCNC3)cc2)cc1 [Example 236, hydrochloride]"
  Value: -0.67
- Compound: "O=C(Nc1ccc(C2CCNC2)cc1)Nc1ccc(Cl)nc1 (racemic) [Example 26, hydrochloride]"
  Value: -1.95
- Compound: "CC(CO)(CCl)COc1ccc(C(=O)Nc2ccc(C3CNCCO3)cc2)cc1 (racemic)"
  Value: -1.36
- Compound: "CO[C@H]1CC[C@@H](C(=O)Nc2ccc(C3CNCCO3)cc2)CC1 (mixture of isomers) [Example 254, hydrochloride]"
  Value: 0.45
- Compound: "O=C(Nc1ccc(CCC2CCCCN2)cc1)c1ccc(C(F)(F)F)cc1 (racemic) [Example 175, hydrochloride]"
  Value: -1.33
- Compound: "O=C(NCc1ccc([C@@H]2CNCCO2)cc1)c1ccc(Cl)cc1 [Example 314, hydrochloride]"
  Value: 0.28
- Compound: "O=C(Nc1ccc([C@H]2CNCCO2)cc1)c1ccc(Cl)cc1I"
  Value: -1.29
- Compound: "CC(C(=O)Nc1ccc(C2CCNC2)cc1)c1ccccc1 (racemic)"
  Value: -0.49
- Compound: "Cc1ccc(NC(=O)Nc2ccc(C3CNCCO3)cc2)cc1 (racemic) [Example 293, hydrochloride]"
  Value: -2.13
- Compound: "CCSc1ccc(C(=O)Nc2ccc([C@@H]3CCCNC3)cc2)cc1 [Example 237, hydrochloride]"
  Value: -1.17
- Compound: "O=C(Nc1ccc(C2CCNC2)cc1)c1ccc(C(F)(F)F)cn1 (racemic) [Example 139, hydrochloride]"
  Value: -1.80
- Compound: "O=C(Nc1ccc(C2CNCCO2)cc1)c1cncc(Cl)c1 (racemic) [Example 210, hydrochloride]"
  Value: -1.36
- Compound: "CC(OC(=O)Nc1ccc(C2CCNC2)cc1)c1ccc(Cl)cc1 (racemic)"
  Value: -3.22
- Compound: "O=C(Nc1ccc(C2CCNC2)cc1)c1ccc(Cl)cn1 (racemic) [Example 42, hydrochloride]"
  Value: -2.48
- Compound: "CSc1ccc(C(=O)Nc2ccc(C3CNCCO3)cc2)cc1 (racemic) [Example 216, hydrochloride]"
  Value: -1.75
- Compound: "O=C(Nc1ccc(C2CNCCO2)cc1)c1ccc(N2CCOCC2)nc1 (racemic) [Example 241, hydrochloride]"
  Value: 0.19

###

# Study System: mouse TAAR1 (Mus musculus (Mouse), UniProt Q923Y8)
# Assay: Radioligand binding assay on mouse TAAR1
# Measurement Context: mouse TAAR1, HEK-293 membranes, first value of cell mouse/rat; read-out: Ki (μM) mouse
Structures can show the parent of a compound that is named as a salt.
Ki values, listed per item
Property Label: Ki (µM)

- Molecule: "CCOc1ccc(C(=O)Nc2ccc(C3CCCNC3)cc2)nc1 (racemic) [Example 179, hydrochloride]"
  Study System: "mouse TAAR1 (Mus musculus (Mouse), UniProt Q923Y8)"
  Units: "µM"
  Value: 0.0008
- Molecule: "O=C(Nc1ccc(C2CCNC2)cc1)c1ccc(Cl)cc1F (racemic) [Example 77, hydrochloride]"
  Study System: "mouse TAAR1 (Mus musculus (Mouse), UniProt Q923Y8)"
  Units: "µM"
  Value: 0.0017
- Molecule: "CC(C(=O)Nc1ccc(C2CCCNC2)cc1)c1cccc(OC(F)(F)F)c1 (racemic)"
  Study System: "mouse TAAR1 (Mus musculus (Mouse), UniProt Q923Y8)"
  Units: "µM"
  Value: 0.0296
- Molecule: "CN1CCN(c2ccc(NC(=O)Nc3ccc(-c4cnco4)cc3)cc2)CC1"
  Study System: "mouse TAAR1 (Mus musculus (Mouse), UniProt Q923Y8)"
  Units: "µM"
  Value: 0.0189

###

# Study System: rat TAAR1 (Rattus norvegicus (Rat), UniProt Q923Y9)
# Sequence (Q923Y9 whole entry): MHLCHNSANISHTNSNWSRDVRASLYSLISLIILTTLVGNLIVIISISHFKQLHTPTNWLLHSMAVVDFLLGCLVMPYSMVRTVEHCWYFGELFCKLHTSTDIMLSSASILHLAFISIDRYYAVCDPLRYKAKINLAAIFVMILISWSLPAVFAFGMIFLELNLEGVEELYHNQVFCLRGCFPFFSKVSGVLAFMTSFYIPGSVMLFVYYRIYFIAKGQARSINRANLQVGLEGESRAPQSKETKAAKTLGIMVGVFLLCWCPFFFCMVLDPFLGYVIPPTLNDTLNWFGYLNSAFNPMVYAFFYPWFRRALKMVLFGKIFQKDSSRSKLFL
# Assay: Radioligand binding assay on rat TAAR1
# Measurement Context: rat TAAR1, HEK-293 membranes, second value of cell mouse/rat; read-out: Ki (μM) rat
Where a name gives a salt, the structure may show the parent alone.

- Molecule: "O=C(Nc1ccc(C2CNCCO2)cc1)c1ccnc(C(F)(F)F)c1 (racemic) [Example 280, hydrochloride]"
  Ki / µM: 0.0069
- Molecule: "O=C(Nc1ccc(C2CNCCO2)cc1)c1cncc(Cl)c1 (racemic) [Example 210, hydrochloride]"
  Ki / µM: 0.0062
- Molecule: "CCOc1ccc(C(=O)Nc2ccc(CCC3CCCN3)cc2)cc1 (racemic) [Example 158, hydrochloride]"
  Ki / µM: 0.0014
- Molecule: "O=C(Nc1ccc(C2CNCCO2)cc1)c1ccc(OCc2ccccc2)cc1 (racemic) [Example 192, hydrochloride]"
  Ki / µM: 0.0113

###

Items are presented alongside their recorded Ki.
# Study System: mouse TAAR1 (Mus musculus (Mouse), UniProt Q923Y8)
# Assay: Radioligand binding assay on mouse TAAR1
# Measurement Context: read-out: Ki (μM) mouse
Counter-ions that a name gives are not always drawn.

- Molecule: "O=C(Nc1ccc([C@@H]2CNCCO2)cc1)c1cc(Cl)nc(Cl)c1 [Example 270, hydrochloride]"
  Ki [µM]: 0.0049
- Molecule: "O=C(Nc1ccc([C@H]2CCCNC2)cc1)c1cnc(Cl)cn1 [Example 239, hydrochloride]"
  Ki [µM]: 0.0396
- Molecule: "O=C(Nc1ccc([C@@H]2CCCNC2)cc1)c1ccc(C(F)(F)F)nc1 [Example 242, hydrochloride]"
  Ki [µM]: 0.037
- Molecule: "O=C(Nc1ccc([C@@H]2CCCNC2)cc1)OC1Cc2ccccc2C1 [Example 258, 2,2,2-trifluoroacetate]"
  Ki [µM]: 0.0225
- Molecule: "O=C(Nc1ccc([C@@H]2CCCNC2)cc1)c1cccc(Cl)c1 [Example 153, hydrochloride]"
  Ki [µM]: 0.0715
- Molecule: "Cc1ccc(C(=O)Nc2ccc([C@H]3CCCNC3)cc2)cc1C [Example 260, hydrochloride]"
  Ki [µM]: 0.016
- Molecule: "O=C(Nc1ccc([C@H]2CCCNC2)cc1)c1ccc(Cl)nc1 [Example 161, hydrochloride]"
  Ki [µM]: 0.0403
- Molecule: "Cc1cc(C(=O)Nc2ccc([C@@H]3CNCCO3)cc2)cc(Cl)n1 [Example 285, hydrochloride]"
  Ki [µM]: 0.0082
